Hey, just so you know, these numbers are from paper PMC13229503.

- Study Target: GlnBP(111 C-192C) (Escherichia coli, UniProt P0AEQ3, G214C/V133C)
- Sequence (P0AEQ3 23-248 V133C/G214C): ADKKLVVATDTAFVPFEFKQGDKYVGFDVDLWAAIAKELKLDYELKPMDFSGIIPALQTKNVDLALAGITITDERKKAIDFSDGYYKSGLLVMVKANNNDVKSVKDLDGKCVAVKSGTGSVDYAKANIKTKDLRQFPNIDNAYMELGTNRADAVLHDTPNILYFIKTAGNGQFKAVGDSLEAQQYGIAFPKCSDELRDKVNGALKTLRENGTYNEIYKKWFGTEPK
- Test Summary: ITC of ligand binding to refolded, unlabeled GlnBP(111C-192C)
Property Name: Kd (µM)
Note: unit µM is implicit; provide only the numeric part.

Per the records, this compound ( `N=C(N)NCCC[C@H](N)C(=O)O` ) has Kd equal to 421

###

- Study Target: GlnBP(59 C-130C) (Escherichia coli, UniProt P0AEQ3, T152C/T81C)
- Construct: made in house; host or cells: E. coli BL21-pLysS
- Sequence (P0AEQ3 23-248 T81C/T152C): as the sequence (P0AEQ3 23-248 V133C/G214C) above, with T59C, C111V, T130C, C192G counted along it
- Test Summary: ITC of ligand binding to refolded, unlabeled GlnBP(59C-130C)
Property Name: pKd
Interpret pKd as the negative base-10 log of the concentration measured in mol/L.

Per the records, this molecule ( `N=C(N)NCCC[C@H](N)C(=O)O` ) has pKd equal to 3.13
